Where do the numbers come from? From PubChem BioAssay (NCATS).

subjectOfTest: Cellular tumor antigen p53 (Homo sapiens) (UniProt P04637)
Sequence (P04637 whole entry, looked up): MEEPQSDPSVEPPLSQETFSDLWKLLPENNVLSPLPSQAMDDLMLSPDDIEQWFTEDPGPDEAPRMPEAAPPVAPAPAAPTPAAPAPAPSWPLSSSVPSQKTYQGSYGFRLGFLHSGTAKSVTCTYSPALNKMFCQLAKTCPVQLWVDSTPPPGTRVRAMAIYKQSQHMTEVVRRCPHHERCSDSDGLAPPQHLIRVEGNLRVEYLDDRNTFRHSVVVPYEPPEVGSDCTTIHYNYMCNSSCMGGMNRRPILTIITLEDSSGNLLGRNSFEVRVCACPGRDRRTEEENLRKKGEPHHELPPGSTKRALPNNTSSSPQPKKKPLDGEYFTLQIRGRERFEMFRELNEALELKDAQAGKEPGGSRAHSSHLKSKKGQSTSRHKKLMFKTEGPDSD
assayExplanation: Primary qHTS for small molecule compounds that upregulate eGFP-tagged delta133p53alpha (in N-terminal) cells. (AID 2060322);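 also: cells pre-induced with doxycycline then dosed without doxycycline; series mostly up to about 56 µM; 0% = DMSO vehicle and 100% = reference activator; nearly all actives have a fitted effect of over 75% in size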
experimentalContext: NCI-H358 eGFP-delta133p53alpha fluorescence, 24 h; hits give high values
Results filed as inconclusive are left out.
measureName: activation (%)
// note: answer is a bare numeric in %

CC[C@H]1CN2CC[C@H]1C[C@H]2[C@H](O)c1ccnc2ccc(OC)cc12 | 7.14
CCNC(=O)[C@H]1O[C@@H](n2cnc3c(N)ncnc32)[C@H](O)[C@@H]1O | 1.33
C[C@H](N)Cc1cccc(C(F)(F)F)c1 | -17
C1=C(c2cnc[nH]2)c2ccsc2CC1 | -3.34
NCCc1c[nH]c2ccccc12 | -5.39
CN1C[C@@H](NS(=O)(=O)N(C)C)C[C@@H]2c3cccc4c3c(cn4C)C[C@H]21 | 14.1

Query string: Provide activation value for the following compound: OC(O)C(Cl)(Cl)Cl
Result string: -29.9

Query string: Provide activation value for the following compound: CN1CC[C@]23c4c5ccc(O)c4O[C@H]2[C@@H](O)CC[C@H]3[C@H]1C5
Result string: 14.1
